Values compiled from ChEMBL document CHEMBL1138979.

target-or-test-system: Metabotropic glutamate receptor 1 (Rattus norvegicus, UniProt P23385)
Sequence (P23385 whole entry): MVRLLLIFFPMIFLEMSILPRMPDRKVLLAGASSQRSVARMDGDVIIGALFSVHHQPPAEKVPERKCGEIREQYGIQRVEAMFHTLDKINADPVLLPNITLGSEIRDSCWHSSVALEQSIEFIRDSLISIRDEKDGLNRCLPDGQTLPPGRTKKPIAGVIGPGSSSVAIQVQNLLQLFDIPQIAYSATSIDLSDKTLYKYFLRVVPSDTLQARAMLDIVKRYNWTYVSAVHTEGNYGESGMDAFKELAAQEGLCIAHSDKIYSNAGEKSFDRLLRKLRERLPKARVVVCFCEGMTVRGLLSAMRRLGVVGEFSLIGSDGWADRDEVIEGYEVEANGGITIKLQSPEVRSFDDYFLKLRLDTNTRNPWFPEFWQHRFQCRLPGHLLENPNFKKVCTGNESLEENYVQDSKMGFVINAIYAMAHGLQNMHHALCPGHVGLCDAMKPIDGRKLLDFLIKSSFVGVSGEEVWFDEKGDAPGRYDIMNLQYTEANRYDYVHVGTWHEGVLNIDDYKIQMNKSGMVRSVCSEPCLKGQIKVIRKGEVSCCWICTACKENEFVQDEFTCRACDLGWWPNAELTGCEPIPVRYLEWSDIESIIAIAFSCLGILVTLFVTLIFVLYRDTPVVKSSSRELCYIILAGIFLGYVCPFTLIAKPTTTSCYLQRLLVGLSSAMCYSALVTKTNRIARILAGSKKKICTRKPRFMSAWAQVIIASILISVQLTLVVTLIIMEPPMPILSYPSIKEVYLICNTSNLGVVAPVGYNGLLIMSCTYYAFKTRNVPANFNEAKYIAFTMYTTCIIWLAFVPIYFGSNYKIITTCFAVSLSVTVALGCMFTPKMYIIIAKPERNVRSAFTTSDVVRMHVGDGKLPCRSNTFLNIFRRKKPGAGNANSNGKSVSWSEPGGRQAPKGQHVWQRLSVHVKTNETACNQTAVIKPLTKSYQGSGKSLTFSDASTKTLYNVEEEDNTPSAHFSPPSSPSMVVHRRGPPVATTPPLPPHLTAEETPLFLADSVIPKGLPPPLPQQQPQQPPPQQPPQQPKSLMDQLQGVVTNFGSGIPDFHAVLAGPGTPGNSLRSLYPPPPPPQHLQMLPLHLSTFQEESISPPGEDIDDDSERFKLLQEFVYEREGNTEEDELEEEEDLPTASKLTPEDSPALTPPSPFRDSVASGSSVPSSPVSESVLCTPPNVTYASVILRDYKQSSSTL
assay: Inhibition of rat mGluR1a in CHO cells by CDP-DAG accumulation method
Type: functional, cell-based
pIC50: −log10 of the molar value.
measured-metric: pIC50

compound: C=CCN1CCn2cc(C(=O)OC(C)C(C)(C)C)c(C)c2C1=O (centres undefined)
target-or-test-system: Metabotropic glutamate receptor 1 (Rattus norvegicus, UniProt P23385)
measured-metric: pIC50
measurement: 7.70

(1) Cc1c(C(=O)OC(C)C(C)(C)C)cn2c1C(=O)N(CCCN(C)C(=O)c1ccncc1)CC2 (centres undefined)
(2) Cc1c(C(=O)OC(C)C(C)(C)C)cn2c1C(=O)N(CCCN1C(=O)c3ccccc3C1=O)CC2 (centres undefined)
(3) Cc1c(C(=O)OC(C)C(C)(C)C)cn2c1C(=O)N(Cc1ccccc1)CC2 (centres undefined)
(4) Cc1c(C(=O)OC(C)C(C)(C)C)cn2c1C(=O)N(CC(F)F)CC2 (centres undefined)
Query: Put the entries in order of pIC50, starting with the largest number. Output spec: labels arranged per the requested ranking.
Response: 2, 4, 3, 1
(2: 7.80, 4: 7.60, 3: 6.60, 1: 5.50)

----------
target-or-test-system: Metabotropic glutamate receptor 1 (Rattus norvegicus, UniProt P23385)
assay: Inhibition of rat mGluR1a in CHO cells by CDP-DAG accumulation method
Format: functional, cell-based
pIC50: −log10 of the molar value.
measured-metric: pIC50

compound: Cc1c(C(=O)OC(C)C(C)(C)C)cn2c1C(=O)N(CCCNC(=O)c1ccncc1)CC2 (stereo not given)
pIC50: 6.40

(1) Cc1c(C(=O)OC(C)C(C)(C)C)cn2c1C(=O)N(CC1CC1)CC2 (stereo not given)
(2) CC(=O)NCCCN1CCn2cc(C(=O)OC(C)C(C)(C)C)c(C)c2C1=O (stereo not given)
(3) Cc1c(C(=O)OC(C)C(C)(C)C)cn2c1C(=O)N(N1CCOCC1)CC2 (stereo not given)
(4) CCCN1CCn2cc(C(=O)OC(C)C(C)(C)C)c(C)c2C1=O (stereo not given)
Query: Put the entries in order of pIC50, starting with the largest number. Output spec: labels arranged per the requested ranking.
Response: 1, 4, 2, 3
(1: 7.70, 4: 7.40, 2: 6.30, 3: 5.50)

----------
target-or-test-system: Metabotropic glutamate receptor 1 (Rattus norvegicus, UniProt P23385)
assay: Inhibition of rat mGluR1a in CHO cells by CDP-DAG accumulation method
Type: functional, cell-based
pIC50: −log10 of the molar value.
measured-metric: pIC50

compound: Cc1c(C(=O)OC(C)C(C)(C)C)cn2c1C(=O)N(CCNC(=O)OC(C)(C)C)CC2 (centres undefined)
target-or-test-system: Metabotropic glutamate receptor 1 (Rattus norvegicus, UniProt P23385)
pIC50: 6.40

compound: CCNC(=O)NCCCN1CCn2cc(C(=O)OC(C)C(C)(C)C)c(C)c2C1=O (centres undefined)
target-or-test-system: Metabotropic glutamate receptor 1 (Rattus norvegicus, UniProt P23385)
pIC50: 6.40

(1) COCCN1CCn2cc(C(=O)OC(C)C(C)(C)C)c(C)c2C1=O (centres undefined)
(2) Cc1c(C(=O)OC(C)C(C)(C)C)cn2c1C(=O)N(CCF)CC2 (centres undefined)
Query: Please let me know which one, 1 or 2 , has a lower measured pIC50 value. Answer by stating the label of the chosen item.
Response: 1
(1: 6.60, 2: 7.70)
